These measurements were taken from paper PMC5444840.

# assayedTarget: VZV gC IgD (amino acids P140 to V531, with the predicted immunoglobulin-like domains) (Varicella zoster virus, Dumas strain)
# experimentNotes: SPR; multi-cycle kinetics, Biacore X-100: rSgC or IgD amine-coupled on a CM4 chip; different chemokine concentrations at 30 ul/min, 180 s contact, 600 s dissociation, HBS-EP pH 7.4; global fit to a 1:1 Langmuir model
measureName: Kd (pM)
Number only, in pM; omit the unit.

Reported Kd, binder CXCL13 (ligand) VLEVYYTSLRCRCVQESSVFIPRRFIDRIQILPRGNGCPRKEIIVWKKNKSIVCVDPQAEWIQRMMEVLRKRSSSTLPVPVFKRKIP : ____
567
